Origin of measurements: patent US20090203708A1

Quick record: IC50, human serotonin 5-HT6 receptor (Homo sapiens, UniProt P50406).
Numbers only, in nM.

Worked examples follow.
GIVEN SMILES	VAL
Cc1cc(C)cc(CCCn2c(=O)c3c(N4CCN(C)CC4)cc(Cl)cc3n(Cc3ccccc3)c2=O)c1	2
CN1CCN(c2cc(Cl)cc3c2c(=O)n(Cc2ccccc2Cl)c(=O)n3Cc2ccccc2)CC1	0.5

Continue with the molecule presented below.
Which IC50 value belongs to `O=c1c2c(N3CCNCC3)cc(Cl)cc2n(Cc2ccccc2)c(=O)n1CCc1ccccc1` ?
0.6

====

# EXPERIMENTAL TARGET: D3 (hD3 receptor) (Homo sapiens)
# Sequence (P35462 whole entry): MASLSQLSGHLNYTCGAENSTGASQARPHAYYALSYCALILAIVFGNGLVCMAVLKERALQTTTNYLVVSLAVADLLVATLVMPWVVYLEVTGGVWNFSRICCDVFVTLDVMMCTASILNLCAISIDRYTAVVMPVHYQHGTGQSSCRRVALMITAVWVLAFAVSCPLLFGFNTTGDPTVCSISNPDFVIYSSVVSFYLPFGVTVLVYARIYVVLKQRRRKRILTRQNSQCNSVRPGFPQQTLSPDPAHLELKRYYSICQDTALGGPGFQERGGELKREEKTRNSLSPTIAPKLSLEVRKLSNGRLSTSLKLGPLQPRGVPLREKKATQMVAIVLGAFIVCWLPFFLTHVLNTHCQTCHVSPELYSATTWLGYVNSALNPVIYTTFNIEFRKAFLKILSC
pIC50: −log10 of the molar value.
Would you mind labelling by pIC50? At or over 6 is t, under is f.

GIVEN SMILES	EXPERIMENTAL TARGET	LABEL VALUE
CCCn1c(=O)c2c(N3CCN(C)CC3)cc(Cl)cc2n(Cc2ccccc2)c1=O	D3 (hD3 receptor) (Homo sapiens)	f
CCCCCCCCn1c(=O)c2c(N3CCN(C)CC3)cc(Cl)cc2n(Cc2ccccc2)c1=O	D3 (hD3 receptor) (Homo sapiens)	t
CN1CCN(c2cc(Cl)cc3c2c(=O)n(Cc2ccc(F)cc2)c(=O)n3Cc2ccccc2)CC1	D3 (hD3 receptor) (Homo sapiens)	f
CN1CCN(c2cc(Br)cc3c2c(=O)n(Cc2ccccc2)c(=O)n3Cc2ccccc2)CC1	D3 (hD3 receptor) (Homo sapiens)	t

Answer whether pIC50 of `CN1CCN(c2cc(Cl)cc3c2c(=O)n(Cc2cccc(I)c2)c(=O)n3Cc2ccccc2)CC1` is greater than or equal to 6.
t

====

For each record, write down the corresponding melting point.

Reference set (3 entries):
GIVEN SMILES	melting point
COc1ccccc1Cn1c(=O)c2c(N3CCN(C)CC3)cc(Cl)cc2n(Cc2ccccc2)c1=O	91 to 96 °C
CN1CCN(c2cc(Cl)cc3c2c(=O)n(Cc2cccc(O)c2)c(=O)n3Cc2ccccc2)CC1	234 to 236 °C
CN1CCN(c2cc(Cl)cc3c2c(=O)n(C)c(=O)n3Cc2ccccc2)CC1	173 to 175 °C

Let us move to another entry and its melting point.
// lookup melting point for `CN1CCN(c2cc(Cl)cc3c2c(=O)n(Cc2ccccc2)c(=O)n3Cc2ccccc2)CC1`
113 to 116 °C

====

QUANTITY KIND: melting point

GIVEN SMILES	melting point
CN1CCN(c2cc(Cl)cc3c2c(=O)n(CCc2ccccc2)c(=O)n3Cc2ccccc2)CC1	136 to 138 °C
CN1CCN(c2cc(Br)cc3c2c(=O)n(Cc2ccccc2)c(=O)n3Cc2ccccc2)CC1	80 to 84 °C
O=c1c2c(N3CCNCC3)cc(Cl)cc2n(Cc2ccccc2)c(=O)n1Cc1ccccc1O	113 to 130 °C
CN1CCN(c2cc(Cl)cc3c2c(=O)n(Cc2ccc(F)cc2)c(=O)n3Cc2ccccc2)CC1	110 to 114 °C
CC(C)Cc1cccc(CCCn2c(=O)c3c(N4CCN(C)CC4)cc(Cl)cc3n(Cc3ccccc3)c2=O)c1	56 to 62 °C

The record that follows has no melting point shown yet.
# query: melting point of entry `COc1cccc(Cn2c(=O)c3c(N4CCN(C)CC4)cc(Cl)cc3n(Cc3ccccc3)c2=O)c1`
98 to 110 °C
